Biological target: T1, biotin-peptide MEDYVNFNFT (human)
T1 peptide: Biotin-MEDYVNFNFT
Test: ELISA biotin-peptide; scFv 10 ug/mL; repII
Where no end group is shown, it is not given here. The star is where a group is joined. Biotin = O=C1N[C@H]2[C@H](CS[C@H]2CCCCC(=O)*)N1
ASSAY METRIC: OD450 (OD)
Respond with the bare value in OD.

# example entries with known answers
| BINDER | OD450 / OD |
| --- | --- |
| Comparative antibody 2 (Comp-2) scFv, 243LO326 (VH SEQ ID NO: 51 and VL SEQ ID NO: 52 of WO 2022/195028 A2), His-tagged (scFv) scFv: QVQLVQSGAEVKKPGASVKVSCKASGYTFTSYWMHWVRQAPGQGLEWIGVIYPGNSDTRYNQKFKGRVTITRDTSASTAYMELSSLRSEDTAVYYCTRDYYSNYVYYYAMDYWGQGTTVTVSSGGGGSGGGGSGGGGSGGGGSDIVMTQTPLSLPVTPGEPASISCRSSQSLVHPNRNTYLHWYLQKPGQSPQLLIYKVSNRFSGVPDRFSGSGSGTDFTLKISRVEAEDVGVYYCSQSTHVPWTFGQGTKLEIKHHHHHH | 0.08 |
| Comparative antibody 1 (Comp-1) scFv, SEQ ID NO: 10 from WO2023/037125 A1, His-tagged (scFv) scFv: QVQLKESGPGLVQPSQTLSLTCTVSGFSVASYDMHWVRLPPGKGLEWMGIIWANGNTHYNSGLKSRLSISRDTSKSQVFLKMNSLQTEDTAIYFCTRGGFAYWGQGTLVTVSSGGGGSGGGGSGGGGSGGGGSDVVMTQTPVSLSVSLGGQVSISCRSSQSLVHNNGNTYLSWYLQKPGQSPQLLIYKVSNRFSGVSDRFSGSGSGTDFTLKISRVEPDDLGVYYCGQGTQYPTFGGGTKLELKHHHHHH | 0.14 |
| Comparative antibody 3 (Comp-3) scFv, SR_92R (Somovilla-Crespo et al. 2018), His-tagged (scFv) scFv: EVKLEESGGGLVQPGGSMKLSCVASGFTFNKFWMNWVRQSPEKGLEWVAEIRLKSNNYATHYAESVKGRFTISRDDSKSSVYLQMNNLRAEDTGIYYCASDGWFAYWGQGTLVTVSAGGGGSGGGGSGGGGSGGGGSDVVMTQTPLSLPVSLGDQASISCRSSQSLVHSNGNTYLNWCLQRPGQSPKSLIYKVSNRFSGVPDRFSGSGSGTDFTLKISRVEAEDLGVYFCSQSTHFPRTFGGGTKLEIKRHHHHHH | 0.11 |

Could you now look at the following binder, please?
Kindly note the recorded OD450 for CCR9_HUM2 scFv (humanized anti-CCR9 scFv, SEQ ID NO: 17 with C-terminal 6xHis tag) (scFv) scFv: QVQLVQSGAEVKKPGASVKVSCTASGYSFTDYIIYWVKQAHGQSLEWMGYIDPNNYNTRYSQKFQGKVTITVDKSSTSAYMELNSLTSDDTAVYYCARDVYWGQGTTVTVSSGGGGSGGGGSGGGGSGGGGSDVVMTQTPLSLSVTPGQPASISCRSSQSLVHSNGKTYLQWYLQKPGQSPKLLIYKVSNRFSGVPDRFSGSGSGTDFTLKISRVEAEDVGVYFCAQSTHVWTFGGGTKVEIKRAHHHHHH , which is 2.32
